- test: Inhibition of Plasmodium falciparum recombinant HGPRT expressed in Escherichia coli using Prib-PP as substrate by spectrophotometric assay in presence of guanine
Flag rule - Ki less than 0.3 µM flags True; the remaining entries get False.

>  <givenSmiles>
CCOC(=O)CN(CCn1cnc2c(=O)[nH]cnc21)CCP(=O)(O)O

>  <label>
False

$$$$
>  <givenSmiles>
O=c1[nH]cnc2c1ncn2CCN(CCO)CCP(=O)(O)O

>  <label>
False

$$$$
>  <givenSmiles>
Nc1nc2c(ncn2CCN(CCC(=O)O)CCP(=O)(O)O)c(=O)[nH]1

>  <label>
True

$$$$

Ki strictly < 0.3 µM for this compound? `Nc1nc2c(ncn2CCN(CCO)CCP(=O)(O)O)c(=O)[nH]1`
True

Is Ki strictly under 0.3 µM for the entry `N#CCN(CCn1cnc2c(=O)[nH]cnc21)CCP(=O)(O)O` ?
False

is_below(Ki, 0.3 µM) for `N#CCCN(CCn1cnc2c(=O)[nH]c(N)nc21)CCP(=O)(O)O` ?
True

is_below(Ki, 0.3 µM) for `CCOC(=O)CN(CCn1cnc2c(=O)[nH]c(N)nc21)CCP(=O)(O)O` ?
False

Is Ki of `COC(=O)CCCN(CCn1cnc2c(=O)[nH]cnc21)CCP(=O)(O)O` strictly below 0.3 µM?
False

Consider `N#CCCN(CCn1cnc2c(=O)[nH]cnc21)CCP(=O)(O)O` . Does its Ki lie strictly below 0.3 µM?
True

Report whether reported Ki is lower than 0.3 µM (strictly) for `Nc1nc2c(ncn2CCN(CCP(=O)(O)O)CC(=O)O)c(=O)[nH]1`
False

Ki strictly < 0.3 µM for this compound? `O=C(O)CCCN(CCn1cnc2c(=O)[nH]cnc21)CCP(=O)(O)O`
False

Would you kindly verify if Ki of `COC(=O)CCCN(CCn1cnc2c(=O)[nH]c(N)nc21)CCP(=O)(O)O` is strictly less than 0.3 µM?
False

Does the reported Ki of `N#CCCCN(CCn1cnc2c(=O)[nH]cnc21)CCP(=O)(O)O` stay below 0.3 µM?
False

# check: Ki < 0.3 µM for `O=c1[nH]cnc2c1ncn2CCNCCP(=O)(O)O`
False

Just wondering, is Ki of `O=C(O)CCN(CCn1cnc2c(=O)[nH]cnc21)CCP(=O)(O)O` below 0.3 µM?
False

Is Ki of `COC(=O)CCN(CCn1cnc2c(=O)[nH]c(N)nc21)CCP(=O)(O)O` strictly below 0.3 µM?
True

Please check: Ki for `N#CCCCN(CCn1cnc2c(=O)[nH]c(N)nc21)CCP(=O)(O)O` , strictly under 0.3 µM or not?
False
